molecular target: Gal(b1-4)GlcNAc(b1-2)Man(a1-3)[Man(a1-6)]Man(b1-4)GlcNAc(b1-4)GlcNAc; experiment: glycan array binding signal (z-score within array); higher = stronger binding; settings: glycan notation: IUPAC condensed, linker removed
About 410 targets per protein were measured; listed, in parts, are those with the strongest signals and a random draw of the rest.
assay readout: glycan array binding signal (z-score)
Quick one: just the number, no unit, thanks!

Galatrox (Botrops atrox), P0DM53 (protein) NNCPQDWLPMNGLCYKIFDELKAWKDAEMFCRKYKPGCHLASIILYGESPEWAEGHSEVWLGLWDKKKDFSWEWTDR: 0.001
Epa1to9 (Candida glabrata) (protein) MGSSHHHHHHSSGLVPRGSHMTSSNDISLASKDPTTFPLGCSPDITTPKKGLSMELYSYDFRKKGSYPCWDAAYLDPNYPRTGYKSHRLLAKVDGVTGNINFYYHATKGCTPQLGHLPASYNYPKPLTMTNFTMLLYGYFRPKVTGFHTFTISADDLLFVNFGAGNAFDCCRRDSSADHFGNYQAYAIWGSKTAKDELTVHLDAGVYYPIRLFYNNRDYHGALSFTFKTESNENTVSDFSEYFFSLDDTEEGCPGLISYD: -0.161

Next, consider the following binder.
Which glycan array binding signal (z-score) value is on record for Loc1 (Escherichia coli) (protein) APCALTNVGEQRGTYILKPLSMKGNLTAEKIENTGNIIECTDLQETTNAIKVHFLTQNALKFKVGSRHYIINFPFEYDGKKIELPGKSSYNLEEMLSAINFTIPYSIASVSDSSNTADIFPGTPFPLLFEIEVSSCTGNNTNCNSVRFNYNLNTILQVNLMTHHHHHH ?
-0.747
